# target system: UniProtKB P43115
# assay details: Cellular in vitro assay for determining EP3 receptor activity (human EP3 cell line, sulprostone-stimulated calcium luminescence)
# condition info: CHO cells expressing human EP3 and mitochondrial Clytin; antagonist mode, sulprostone at EC50; read-out: EP3 CHO mtCLY ANTAG IC50
Structures can show the parent of a compound that is named as a salt.
property name: IC50
Include the unit after the number when you answer.

Here are 3 compounds together with their reported answers.
>  <compound>
CC(C)c1c(C(=O)NC2(c3ccc(F)cc3)CN(C)C2)nn2cc(-c3ccc(Cl)c(F)c3)[nH]c(=O)c12

>  <target system>
UniProtKB P43115

>  <IC50>
2.77 nM

$$$$
>  <compound>
COc1ccc(CCNC(=O)c2nn3cc(-c4ccc5ccccc5c4)[nH]c(=O)c3c2C(C)C)cc1OC

>  <target system>
UniProtKB P43115

>  <IC50>
0.887 nM

$$$$
>  <compound>
Cn1cnc2cc(-c3cn4nc(C(=O)N[C@@H](c5ccc(F)cc5)C(C)(C)O)c(C5CC5)c4c(=O)[nH]3)ccc21

>  <target system>
UniProtKB P43115

>  <IC50>
2.1 nM

$$$$

Param readout= IC50; system= UniProtKB P43115; entry= Cc1c(C(=O)N[C@@H](C)c2cnccn2)nn2c(C)c(-c3ccc4ccccc4c3)[nH]c(=O)c12 ; returns value.
7.45 nM

Cool, now Cc1cccc2ncc(-c3cn4nc(C(=O)NC5(c6ccc(C#N)cc6)CC5)c(C(C)C)c4c(=O)[nH]3)cc12
1.65 nM

Cool, now Cc1c(C(=O)NC2(c3ccc(F)cc3)CN(C)C2)nn2cc(-c3ccc4ccccc4c3)[nH]c(=O)c12 [Example 1-35, hydrochloride]
4.25 nM

Cool, now N#Cc1c(C(=O)NCCn2ccc(C3CC3)n2)nn2cc(-c3ccc4ccccc4c3)[nH]c(=O)c12
4.65 nM

Cool, now CC(C)(O)[C@@H](NC(=O)c1nn2cc(-c3ccc(Cl)cc3)[nH]c(=O)c2c1C1CC1)c1ccc(F)cc1
3.55 nM

Cool, now Cc1ccc(-c2cn3nc(C(=O)N[C@@H](c4ccc(F)cc4)C(C)(C)O)c(C(C)C)c3c(=O)[nH]2)cc1C
5.8 nM

Cool, now Cc1ccc(-c2cn3nc(C(=O)NC(C)C4CCC4)c(C(F)(F)F)c3c(=O)[nH]2)cc1Cl (single isomer, unassigned) [6-194]
2.55 nM

Cool, now Cc1ccc(-c2cn3nc(C(=O)NC(C)c4ccc(O)cc4)cc3c(=O)[nH]2)cc1C (single isomer, unassigned) [6-348]
3.55 nM

Cool, now Cc1ccc(-c2cn3nc(C(=O)NCC(N)C(F)(F)F)c(C4CC4)c3c(=O)[nH]2)cc1C (single isomer, unassigned) [6-433]
0.76 nM

Cool, now O=C(NC1(c2ccc(F)cc2)COC1)c1cc2c(=O)[nH]c(-c3ccc4ccccc4c3)cn2n1
0.74 nM

Cool, now Cc1ccc(-c2cn3nc(C(=O)N[C@H](CN4CC[C@@H](F)C4)c4ccccc4)cc3c(=O)[nH]2)cc1F
3.6 nM

Cool, now O=C(NCC(O)C(F)(F)F)c1nn2cc(-c3ccc(Cl)c(Cl)c3)[nH]c(=O)c2c1C1CC1 (single isomer, unassigned) [6-417]
1.85 nM

Cool, now CC(C)(O)[C@@H](NC(=O)c1nn2cc(-c3ccc4ccccc4c3)[nH]c(=O)c2c1C(F)(F)F)c1ccccc1
1.04 nM

Cool, now CCCNC(=O)c1cc2c(=O)[nH]c(-c3ccc4cccc(F)c4c3)cn2n1
7.5 nM

----------
# key: entry, value: IC50
# target system: human EP3 receptor (Homo sapiens)
# assay details: Cellular in vitro assay for determining EP3 receptor activity (human EP3 cell line, sulprostone-stimulated calcium luminescence)
# condition info: CHO cells expressing human EP3 and mitochondrial Clytin; antagonist mode, sulprostone at EC50; read-out: EP3 CHO mtCLY ANTAG IC50
Structures can show the parent of a compound that is named as a salt.
State just the number; it will be interpreted in nM.

>  <molecule>
Cc1cc(-c2cn3nc(C(=O)N[C@@H](C)C4CC4)c(C4CC4(F)F)c3c(=O)[nH]2)ccc1Cl (stereo partly shown)

>  <output unit>
nM

>  <IC50>
0.84

$$$$

Record request: IC50 value, item COc1ccc(CNC(=O)c2nn3cc(-c4ccc5ccccc5c4)[nH]c(=O)c3c2C(C)C)cc1OC
0.58

Cool, now Cc1cccc2ncc(-c3cn4nc(C(=O)NC5CCc6ccccc65)c(C(C)C)c4c(=O)[nH]3)cc12 (stereo not shown)
6.05

Cool, now COc1ccc([C@@H](C)NC(=O)c2cc3c(=O)[nH]c(-c4ccc5c(c4)COCC5)cn3n2)cn1
4

Cool, now Cc1ccc(-c2cn3nc(C(=O)NC4(c5ccc(F)cc5)CNC4)c(C(F)(F)F)c3c(=O)[nH]2)cc1C
5

Cool, now Cc1cc(-c2cn3nc(C(=O)NC(c4ccc(F)cc4)C4(O)CC4)c(C4CC4)c3c(=O)[nH]2)ccc1F (single isomer, unassigned) [6-652]
10

Cool, now O=C(NC1(c2ccc(F)cc2)CNC1)c1nn2cc(-c3ccc4ccccc4c3)[nH]c(=O)c2c1C(F)(F)F [Example 1-125, hydrochloride]
3.35

----------
# target system: human EP3 receptor (Homo sapiens, UniProt P43115)
# assay details: Cellular in vitro assay for determining EP3 receptor activity (human EP3 cell line, sulprostone-stimulated calcium luminescence)
# condition info: CHO cells expressing human EP3 and mitochondrial Clytin; antagonist mode, sulprostone at EC50; read-out: EP3 CHO mtCLY ANTAG IC50
# key: entry, value: pIC50
Units for pIC50: none; it is -log10 of a concentration expressed in mol/L.

Here are 5 compounds together with their reported answers.
>  <compound>
CCN1CCC(NC(=O)c2nn3cc(-c4ccc(C)c(F)c4)[nH]c(=O)c3c2C2CC2)(C(F)(F)F)C1 (racemic) [6-404]

>  <pIC50>
8.23

$$$$
>  <compound>
Cc1cc(-c2cn3nc(C(=O)NC4(c5ccc(F)cc5)CN(CC(F)(F)F)C4)c(C(F)(F)F)c3c(=O)[nH]2)ccc1Cl

>  <pIC50>
8.72

$$$$
>  <compound>
CN1CC(NC(=O)c2nn3cc(-c4ccc5ccccc5c4)[nH]c(=O)c3c2C(F)(F)F)(c2ccc(F)cc2)C1 [Example 1-32]

>  <pIC50>
8.80

$$$$
>  <compound>
CC(C)CN1CC(NC(=O)c2nn3cc(-c4ccc5ccccc5c4)[nH]c(=O)c3c2C(F)(F)F)(c2ccc(F)cc2)C1

>  <pIC50>
8.54

$$$$
>  <compound>
Cc1ccc(-c2cn3nc(C(=O)NCC(O)C(F)(F)F)c(C(F)(F)F)c3c(=O)[nH]2)cc1Cl (single isomer, unassigned) [6-159]

>  <pIC50>
8.64

$$$$

Record request: pIC50 value, item O=C(NC(CO)c1ccc2c(c1)OCO2)c1cc2c(=O)[nH]c(-c3ccc4ccccc4c3)cn2n1 (centres unmarked)
9.03

Cool, now O=C(NCc1ncc(C(F)(F)F)cc1Cl)c1nn2cc(-c3ccc4ccccc4c3)[nH]c(=O)c2c1C(F)(F)F
8.98

----------
# target system: human EP3 receptor (Homo sapiens, UniProt P43115)
# assay details: Cellular in vitro assay for determining EP3 receptor activity (human EP3 cell line, sulprostone-stimulated calcium luminescence)
# condition info: CHO cells expressing human EP3 and mitochondrial Clytin; antagonist mode, sulprostone at EC50; read-out: EP3 CHO mtCLY ANTAG IC50
# key: entry, value: pIC50
Units for pIC50: none; it is -log10 of a concentration expressed in mol/L.

Here are 3 compounds together with their reported answers.
>  <compound>
CCn1cc(CNC(=O)c2nn3cc(-c4cnc5cccc(C)c5c4)[nH]c(=O)c3c2C(C)C)c(C)n1

>  <value reported>
9.11

$$$$
>  <compound>
Cc1ccc(-c2cn3nc(C(=O)N[C@@H](C)c4ccc(F)cc4)cc3c(=O)[nH]2)cc1Cl

>  <value reported>
8.74

$$$$
>  <compound>
COc1ccc(C(NC(=O)c2nn3c(C)c(-c4ccc5ccccc5c4)[nH]c(=O)c3c2C)C2CC2)cc1 (stereo not shown)

>  <value reported>
8.30

$$$$

Turning to the following compound.
Record request: pIC50 value, item Cc1cc(-c2cn3nc(C(=O)NCCN(CC(F)F)C4CC4)c(C4CC4)c3c(=O)[nH]2)ccc1C(F)(F)F
8.03

----------
# target system: human EP3 receptor (Homo sapiens, UniProt P43115)
# Sequence (P43115 1-390): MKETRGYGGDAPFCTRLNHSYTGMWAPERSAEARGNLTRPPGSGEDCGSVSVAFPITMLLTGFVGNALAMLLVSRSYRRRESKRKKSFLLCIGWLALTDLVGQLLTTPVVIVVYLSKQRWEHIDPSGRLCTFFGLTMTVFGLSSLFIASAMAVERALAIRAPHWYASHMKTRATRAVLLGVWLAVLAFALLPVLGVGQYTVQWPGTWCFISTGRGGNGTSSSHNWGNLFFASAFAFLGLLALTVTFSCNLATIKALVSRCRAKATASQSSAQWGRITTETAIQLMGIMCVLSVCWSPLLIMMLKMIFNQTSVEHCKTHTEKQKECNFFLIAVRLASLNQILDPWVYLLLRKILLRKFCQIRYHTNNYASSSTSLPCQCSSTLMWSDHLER
# assay details: Cellular in vitro assay for determining EP3 receptor activity (human EP3 cell line, sulprostone-stimulated calcium luminescence)
# condition info: CHO cells expressing human EP3 and mitochondrial Clytin; antagonist mode, sulprostone at EC50; read-out: EP3 CHO mtCLY ANTAG IC50
property name: log10 of IC50 (log10 of the value in nM)
The common logarithm of IC50 in nM is what is listed.

>  <compound>
O=C(NC(CO)c1cc(Cl)cc(Cl)c1)c1cc2c(=O)[nH]c(-c3ccc4ccccc4c3)cn2n1 (stereo not shown) [Example 2-26]

>  <property name>
log10 of IC50

>  <value reported>
0.42

$$$$
>  <compound>
Cc1cccc2ncc(-c3cn4nc(C(=O)NC(C)c5ccc(Cl)c(Cl)c5)c(C(C)C)c4c(=O)[nH]3)cc12 (stereo not shown) [Example 4-52]

>  <property name>
log10 of IC50

>  <value reported>
0.61

$$$$
>  <compound>
Cc1ccc([C@H](C)NC(=O)c2nn3cc(-c4cnc5cccc(C)c5c4)[nH]c(=O)c3c2C(C)C)cc1 [Example 4-56]

>  <property name>
log10 of IC50

>  <value reported>
0.60

$$$$
>  <compound>
O=C(NCc1ccc(F)c(F)c1)c1cc2c(=O)[nH]c(-c3ccc4ccccc4c3)cn2n1 [Example 2-33]

>  <property name>
log10 of IC50

>  <value reported>
0.18

$$$$
>  <compound>
Cc1ccc(-c2cn3nc(C(=O)N[C@@H](c4ccc(F)cc4)C(F)(F)CO)c(C4CC4)c3c(=O)[nH]2)cc1F [6-375]

>  <property name>
log10 of IC50

>  <value reported>
0.03

$$$$

Record request: log10 of IC50 value, item Cc1nn(C)c(C)c1C(C)NC(=O)c1cc2c(=O)[nH]c(-c3ccc4ccccc4c3)cn2n1 (stereo not shown) [Example 2-21]
0.65
